Molecular target: β-lactamase produced by Enterobacter cloacae IFO 12937 (Enterobacter cloacae)
Construct: The β-lactamase produced by Enterobacter cloacae IFO 12937; endogenous in cells; host or cells: Enterobacter cloacae IFO 12937
Sequence (P05364 21-381): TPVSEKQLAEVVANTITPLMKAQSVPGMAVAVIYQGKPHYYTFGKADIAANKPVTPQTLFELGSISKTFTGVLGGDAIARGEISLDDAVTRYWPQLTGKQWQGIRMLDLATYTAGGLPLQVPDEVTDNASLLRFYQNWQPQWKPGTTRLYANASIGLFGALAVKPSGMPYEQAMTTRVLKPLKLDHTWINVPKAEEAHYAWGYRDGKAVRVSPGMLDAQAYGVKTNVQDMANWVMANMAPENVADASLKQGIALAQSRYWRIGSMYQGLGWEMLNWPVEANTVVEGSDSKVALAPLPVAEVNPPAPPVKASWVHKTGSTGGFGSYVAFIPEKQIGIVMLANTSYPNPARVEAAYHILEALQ
Test: Inhibitor concentration required to inhibit β-lactamase (cephalosporinase) activity by 50%, micro-iodometric method
Type: biochemical
Details: Enterobacter cloacae IFO 12937 cephalosporinase; 0.05M phosphate buffer pH 7, 30° C., 10 minutes preincubation; cephalothin or ampicillin 0.1 mM; read-out: I50 (converted)
Method: Determination of the inhibitor concentration required to inhibit the enzyme activity by 50% The β-lactamase produced by Enterobacter cloacae IFO 12937 is used as a typical example of cephalosporinase, and that produced by Staphylococcus aureus 1840 as typical example of penicillinase. […] The enzyme activity is determined by the micro-iodometric method [Journal of general Microbiology, vol. […] Hereinafter, the inhibitor concentration required to inhibit the enzyme activity by 50% is expressed as I50. […]
I'd appreciate it if you could supply IC50 values for the items below.
Give bare numbers, in µM.

1) O=C(NC1CN(S(=O)(=O)O)C1=O)C(OS(=O)(=O)O)c1ccccc1 (centres unmarked) [Compound 15] :: 9.46
2) CC(C)(C)OC(=O)C(C)(C)ON=C(C(=O)NC1CN(S(=O)(=O)O)C1=O)c1csc(NC(c2ccccc2)(c2ccccc2)c2ccccc2)n1 (centres unmarked) [Compound 27] :: 0.0695
3) CON=C(C(=O)NC1(OC)CN(S(=O)(=O)O)C1=O)c1csc(NC(=O)CCl)n1 (centres unmarked) [Compound 14] :: 0.658
4) CON=C(C(=O)NC1CN(S(=O)(=O)O)C1=O)c1nc(N)sc1Cl (centres unmarked) :: 2.96

Can you give me IC50 for all of these, one by one?
1. CON=C(C(=O)NC1(OC)CN(S(=O)(=O)O)C1=O)c1csc(N)n1 (centres unmarked) [Compound 13]
2. CCN1CCN(C(=O)NC(C(=O)NC2CN(S(=O)(=O)O)C2=O)C2=C(Cl)CCCC2)C(=O)C1=O (centres unmarked)
3. COc1cccc(OC)c1C(=O)NC1(OC)CN(S(=O)(=O)O)C1=O (centres unmarked) [Compound 18]

Solution:
0.712
5.68
5

Record summary for COC1(NC(=O)[C@@H](C)NC(=O)OCc2ccccc2)CN(S(=O)(=O)O)C1=O (some centres unmarked) [Compound 8] : reported IC50 = 7.97

---

Tested on: Proteus vulgaris GN 5297
Assay: Synergy with Cefotiam, agar dilution MIC
Assay type: cell-based
Details: Table 4, 1 μg/ml test compound in agar, inoculum 10^8 per ml, 18 hours
MEASURED_QUANTITY: MIC of Cefotiam with 1 μg/ml of Compound
One number for each entry.

// below: answered compounds
1. CON=C(C(=O)NC1CN(S(=O)(=O)O)C1=O)c1csc(NS(=O)(=O)O)n1 (stereo not drawn) :: 200
2. Cc1onc(-c2c(Cl)cccc2Cl)c1C(=O)NC1CN(S(=O)(=O)O)C1=O (stereo not drawn) :: 100
3. CON=C(C(=O)NC1CN(S(=O)(=O)O)C1=O)c1csc(N)n1 (stereo not drawn) :: 25

Could you now consider this next compound?
Record summary for COC1(NC(=O)[C@H](NC(=O)N2CCN(N=Cc3ccco3)C2=O)c2ccccc2)CN(S(=O)(=O)O)C1=O (stereo partly drawn) : reported MIC of Cefotiam with 1 μg/ml of Compound = 400

Attribution: patent US4725591A
